Tested on: T47D (PI3Kα H1047R mutant) cells
measurement notes: CellTiter-Glo 2.0 luminescent cell viability assay, 72 hours, T47D cells
Assay type: cell-based
cond: Homo sapiens, T47D, 72 h, read-out: T47D (H1047R mutant) Viability IC50 (nM)
Kindly apply the following: class 1 if IC50 is less than 1000 nM, class 0 in every other case.

Exam item: Consider the compound Cc1cc(C(C)Nc2ccccc2C(=O)O)c2nc(-c3ccccc3)cc(=O)n2c1 (stereo not drawn) . Is its IC50 strictly less than 1000 nM?
Marked response: class 0

Exam item: Also Cc1cc(C(C)Nc2ccccc2C(=O)O)c2nc(N3CCCCC3)cc(=O)n2c1 (stereo not drawn) ?
Marked response: class 0

Exam item: Then this compound: Cc1cc([C@@H](C)Nc2ccccc2C(=O)O)c2nc(N3C4CCC3CC(c3ccnn3C)C4)c(C)c(=O)n2c1 (stereo partly drawn)
Marked response: class 1

Exam item: What about `Cc1cc([C@@H](C)Nc2ccccc2C(=O)O)c2nc(N3CCN(c4ccc(C#N)c5cnccc45)CC3)c(C)c(=O)n2c1` ?
Marked response: class 1

Exam item: // next record Cc1cc(C(C)Nc2ccccc2C(=O)O)c2nc(C)cc(=O)n2c1 (stereo not drawn)
Marked response: class 0

Exam item: Similarly, Cc1cc(C(C)Nc2ccccc2C(=O)O)c2nc(N3CCOCC3)cc(=O)n2c1 (stereo not drawn) ?
Marked response: class 0
